- Test protocol: Determination of logD (1-octanol / phosphate buffer pH 7.4)
- Type: physicochemical
- Recorded conditions: 1-octanol/phosphate buffer, pH 7.4, pH 7.4, 1-octanol/phosphate buffer; read-out: Log D, pH 7.4
// classify: if (logD < 4) 1.0 else 0.0

{"columns": ["Molecule", "Assigned label"],
 "data": [
  ["C[C@H]1CN(C/C=C/C(=O)N2CCN(c3nc(OC[C@@]45CCCN4C[C@H](F)C5)nc4c(F)c(-c5cccc6cccc(Cl)c56)ncc34)C[C@@H]2CC#N)C[C@H](C)O1", 1.0],
  ["CC(C)c1noc(/C=C/C(=O)N2CCN(c3nc(OCC45CCCN4CCC5)nc4c3CNC(c3cccc5cccc(Cl)c35)C4F)C[C@@H]2CC#N)n1 (some centres unmarked)", 0.0],
  ["CCc1noc(/C=C/C(=O)N2CCN(c3nc(OCC45CCCN4CCC5)nc4c3CCN(c3cccc5cccc(Cl)c35)C4)C[C@@H]2CC#N)n1", 0.0],
  ["Cn1cc(/C=C/C(=O)N2CCN(c3nc(OCC45CCCN4CCC5)nc4c3CCN(c3cccc5cccc(Cl)c35)C4)C[C@@H]2CC#N)nn1", 1.0]
]}

Data origin: patent US20250129103A1
